For each entry below, report its carbamoylation constant k2, rBChE-IMER value.
Biological target: immobilized human recombinant butyrylcholinesterase (rBChE) (Homo sapiens, UniProt P06276)
Sequence (P06276 29-602): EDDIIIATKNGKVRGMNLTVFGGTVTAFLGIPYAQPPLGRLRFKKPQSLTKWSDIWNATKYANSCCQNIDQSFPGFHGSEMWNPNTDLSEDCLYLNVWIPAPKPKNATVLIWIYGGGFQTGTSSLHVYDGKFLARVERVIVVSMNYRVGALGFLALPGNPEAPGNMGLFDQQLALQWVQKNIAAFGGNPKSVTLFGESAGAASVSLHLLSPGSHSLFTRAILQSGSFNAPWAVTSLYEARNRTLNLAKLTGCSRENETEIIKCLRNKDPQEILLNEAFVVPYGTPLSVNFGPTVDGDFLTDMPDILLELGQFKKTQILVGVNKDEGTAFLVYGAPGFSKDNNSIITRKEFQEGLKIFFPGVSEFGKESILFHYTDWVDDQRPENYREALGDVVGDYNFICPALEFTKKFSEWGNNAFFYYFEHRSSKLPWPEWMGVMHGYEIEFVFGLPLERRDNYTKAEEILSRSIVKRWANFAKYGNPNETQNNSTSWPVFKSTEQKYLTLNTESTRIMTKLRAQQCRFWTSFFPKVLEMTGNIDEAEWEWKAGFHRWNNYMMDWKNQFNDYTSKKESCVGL
Experiment: rBChE-IMER on-line carbamoylation/decarbamoylation kinetics
Format: biochemical
Settings: immobilized enzyme, 30 °C, flow rate 1.0 mL/min
Numbers only, in min⁻¹.

molecule	readout_value
CC(C)c1ccc(NC(=O)Oc2ccc3c(c2)[C@]2(C)CCN[C@@H]2N3)cc1 [(-)-Bisnorcymserine]	0.081

For every record below, what is its carbamoylation constant k2, rBChE-IMER?
1. CC(C)Cc1ccc(NC(=O)Oc2ccc3c(c2)[C@]2(C)CCN[C@@H]2N3)cc1 [(-)-Isobutylbisnorcymserine]
2. CNC(=O)Oc1ccc2c(c1)[C@]1(C)CCN(C)[C@@H]1N2C [(-)-Physostigmine, (-)-physostigmine, reference compound]
3. CN1CC[C@@]2(C)c3cc(OC(=O)Nc4ccccc4)ccc3N(C)[C@@H]12 [(-)-Phenserine, 3aS-(-)-phenylcarbamoyleseroline]

0.049
0.161
0.486
